Source of measurements: patent US6756374B2

target: human cyclin B-CDK1 (Homo sapiens, UniProt P06493)
Sequence (P06493 whole entry): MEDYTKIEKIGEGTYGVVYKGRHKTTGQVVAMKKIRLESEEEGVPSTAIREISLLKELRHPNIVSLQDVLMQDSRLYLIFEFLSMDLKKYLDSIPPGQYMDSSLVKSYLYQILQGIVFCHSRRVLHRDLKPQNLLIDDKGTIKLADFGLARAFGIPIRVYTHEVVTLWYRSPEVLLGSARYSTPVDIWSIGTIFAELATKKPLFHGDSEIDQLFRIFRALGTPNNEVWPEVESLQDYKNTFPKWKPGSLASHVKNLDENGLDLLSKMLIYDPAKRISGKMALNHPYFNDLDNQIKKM
Sequence (P14635 whole entry partner): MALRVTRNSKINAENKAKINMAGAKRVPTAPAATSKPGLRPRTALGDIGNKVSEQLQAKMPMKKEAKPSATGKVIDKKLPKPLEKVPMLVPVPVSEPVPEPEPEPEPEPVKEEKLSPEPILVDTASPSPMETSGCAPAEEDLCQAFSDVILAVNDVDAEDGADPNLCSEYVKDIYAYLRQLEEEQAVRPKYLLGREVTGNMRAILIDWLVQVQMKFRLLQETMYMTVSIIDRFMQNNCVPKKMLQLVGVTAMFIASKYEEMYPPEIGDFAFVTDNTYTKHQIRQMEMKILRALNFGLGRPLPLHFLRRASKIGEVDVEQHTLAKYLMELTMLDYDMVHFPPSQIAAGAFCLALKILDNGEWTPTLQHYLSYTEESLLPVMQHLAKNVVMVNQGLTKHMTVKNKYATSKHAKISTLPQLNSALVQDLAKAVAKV

>  <compound>
CC(C)C[C@H](CO)Nc1ccc(C(=O)c2sc(Nc3ccc(N4CCN(C)CC4)cc3)nc2N)cc1N

>  <system.under.test>
human cyclin B-CDK1 (Homo sapiens, UniProt P06493)

>  <IC50 / µM>
9.6

$$$$
>  <compound>
CC1CCCN1c1ccc(C(=O)c2sc(Nc3ccc(N4CCN(C)CC4)cc3)nc2N)cc1[N+](=O)[O-] (racemic)

>  <system.under.test>
human cyclin B-CDK1 (Homo sapiens, UniProt P06493)

>  <IC50 / µM>
10

$$$$
>  <compound>
CN1CCN(c2ccc(Nc3nc(N)c(C(=O)c4ccc(N5CCCC(CO)C5)c([N+](=O)[O-])c4)s3)cc2)CC1 (racemic)

>  <system.under.test>
human cyclin B-CDK1 (Homo sapiens, UniProt P06493)

>  <IC50 / µM>
3.5

$$$$
>  <compound>
CCN(CC)c1ccc(C(=O)c2sc(Nc3ccc(N4CCN(C(C)=O)CC4)cc3)nc2N)cc1

>  <system.under.test>
human cyclin B-CDK1 (Homo sapiens, UniProt P06493)

>  <IC50 / µM>
2.3

$$$$
>  <compound>
CC(C)N1CCN(c2ccc(Nc3nc(N)c(C(=O)c4ccc5c(c4)OCCO5)s3)cc2)CC1

>  <system.under.test>
human cyclin B-CDK1 (Homo sapiens, UniProt P06493)

>  <IC50 / µM>
2.9

$$$$
